Test system: Escherichia coli TOP10
ASSAY OVERVIEW: shrunken log2 fold change of peptide-encoding DNA abundance (4.5 h post-induction vs induction); higher = less antimicrobial activity (less host growth inhibition)
MEASUREMENT CONTEXT: time post-induction: 4.5 h; library: site-saturation at positions 5, 18, 19, 20
PROPERTY MEASURED: shrunken log2 fold change
Please give only the number in your answer, with no unit.

Below, each entry is followed by its recorded shrunken log2 fold change result.
RRIRNRPPRLPRPRPRPVMVPRP ... -0.0209
RRIRTRPPRLPRPRPRPCNAPRP ... -0.228
RRIRVRPPRLPRPRPRPYFNPRP ... -0.729

stdin: // map RRIRMRPPRLPRPRPRPEIPPRP to recorded shrunken log2 fold change (system: Escherichia coli TOP10)
stdout: 0.497

stdin: Find shrunken log2 fold change (Escherichia coli TOP10) for the entry RRIRHRPPRLPRPRPRPFDVPRP
stdout: -0.168

stdin: # get_value(readout= shrunken log2 fold change, system= Escherichia coli TOP10) for RRIRSRPPRLPRPRPRPSKVPRP
stdout: -0.575

stdin: Hello, I am looking for reported shrunken log2 fold change with Escherichia coli TOP10 for RRIRIRPPRLPRPRPRPGCGPRP . Could you help?
stdout: 0.349

stdin: Write down the reported shrunken log2 fold change of RRIRCRPPRLPRPRPRPHNPPRP , test system: Escherichia coli TOP10.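 Note: peptides expressed intracellularly from a pBAD plasmid library in pooled LB shake-flask culture, induced with 0.3% L-arabinose, DNA abundance read by NGS, three biological replicates, DESeq2 with apeglm shrinkage.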
stdout: -0.377
